target_under_test: Mitogen-activated protein kinase 14 (Homo sapiens)
Sequence (Q16539 whole entry): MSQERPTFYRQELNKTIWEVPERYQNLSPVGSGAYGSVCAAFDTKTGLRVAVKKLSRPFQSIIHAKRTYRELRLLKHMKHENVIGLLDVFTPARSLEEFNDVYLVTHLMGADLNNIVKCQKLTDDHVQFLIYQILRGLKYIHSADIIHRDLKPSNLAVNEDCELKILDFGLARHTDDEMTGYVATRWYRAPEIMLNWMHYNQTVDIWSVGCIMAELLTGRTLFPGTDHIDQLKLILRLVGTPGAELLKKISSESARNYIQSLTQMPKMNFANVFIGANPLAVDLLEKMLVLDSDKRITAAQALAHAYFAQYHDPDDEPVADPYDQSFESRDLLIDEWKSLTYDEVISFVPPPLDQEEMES
assay: Competitive inhibition of p38alpha MAP kinase (unknown origin) in presence of 100 uM ATP
Items are presented alongside their recorded log10 of IC50.
recorded_endpoint: log10 of IC50 (log10 of the value in nM)

{"columns": ["compound", "target_under_test", "recorded_endpoint", "experimental_value"],
 "data": [
  ["CC1(C)OC[C@H](COc2ccc3c(c2)C(=O)c2ccc(Nc4ccc(F)cc4F)cc2OC3)O1", "Mitogen-activated protein kinase 14 (Homo sapiens)", "log10 of IC50", 1.68],
  ["Nc1cc(F)ccc1Nc1ccc2c(c1)OCc1cc(OCCN3CCOCC3)ccc1C2=O", "Mitogen-activated protein kinase 14 (Homo sapiens)", "log10 of IC50", 1.61],
  ["COc1ccc2c(c1)COc1cc(Nc3ccccc3N)ccc1C2=O", "Mitogen-activated protein kinase 14 (Homo sapiens)", "log10 of IC50", 2.12],
  ["O=C1c2cc(OCCO)ccc2COc2cc(Nc3ccc(F)cc3F)ccc21", "Mitogen-activated protein kinase 14 (Homo sapiens)", "log10 of IC50", 1.30],
  ["Nc1ccc2c(c1)C(=O)c1ccc(Nc3ccccc3N)cc1OC2", "Mitogen-activated protein kinase 14 (Homo sapiens)", "log10 of IC50", 2.31],
  ["COc1cccc2c1COc1cc(Nc3ccc(F)cc3F)ccc1C2=O", "Mitogen-activated protein kinase 14 (Homo sapiens)", "log10 of IC50", 1.80],
  ["O=C1c2cc(OCCCO)ccc2COc2cc(Nc3ccc(F)cc3F)ccc21", "Mitogen-activated protein kinase 14 (Homo sapiens)", "log10 of IC50", 0.90],
  ["Nc1ccccc1Nc1ccc2c(c1)OCc1ccc(OCCN3CCOCC3)cc1C2=O", "Mitogen-activated protein kinase 14 (Homo sapiens)", "log10 of IC50", 2.03],
  ["Nc1cccc(Nc2ccc3c(c2)OCc2ccc(OCCN4CCOCC4)cc2C3=O)c1", "Mitogen-activated protein kinase 14 (Homo sapiens)", "log10 of IC50", 2.16],
  ["COc1ccc2c(c1)C(=O)c1ccc(Nc3ccc(F)cc3F)cc1OC2", "Mitogen-activated protein kinase 14 (Homo sapiens)", "log10 of IC50", 2.06],
  ["CC1(C)OC[C@@H](COc2cccc3c2COc2cc(Nc4ccc(F)cc4F)ccc2C3=O)O1", "Mitogen-activated protein kinase 14 (Homo sapiens)", "log10 of IC50", 2.75],
  ["O=C1c2ccccc2CCc2cc(Nc3ccc(F)cc3F)ccc21", "Mitogen-activated protein kinase 14 (Homo sapiens)", "log10 of IC50", 1.98],
  ["CN(C)CCOc1ccc2c(c1)COc1cc(Nc3ccc(F)cc3F)ccc1C2=O", "Mitogen-activated protein kinase 14 (Homo sapiens)", "log10 of IC50", 1.72],
  ["COc1cccc2c1C(=O)c1ccc(Nc3ccc(F)cc3F)cc1OC2", "Mitogen-activated protein kinase 14 (Homo sapiens)", "log10 of IC50", 2.45],
  ["O=C1c2ccc(Nc3ccc(F)cc3F)cc2CCc2ccc(O)cc21", "Mitogen-activated protein kinase 14 (Homo sapiens)", "log10 of IC50", 1.69],
  ["Cc1ccccc1Nc1ccc2c(c1)OCc1cc(OCCN3CCOCC3)ccc1C2=O", "Mitogen-activated protein kinase 14 (Homo sapiens)", "log10 of IC50", 1.93],
  ["O=C1c2cc(OC[C@H](O)CO)ccc2COc2cc(Nc3ccc(F)cc3F)ccc21", "Mitogen-activated protein kinase 14 (Homo sapiens)", "log10 of IC50", 1.15],
  ["O=C1c2cc(OC[C@@H](O)CO)ccc2COc2cc(Nc3ccc(F)cc3F)ccc21", "Mitogen-activated protein kinase 14 (Homo sapiens)", "log10 of IC50", 1.79],
  ["O=C1c2ccc(OCCC3CCOCC3)cc2COc2cc(Nc3ccc(F)cc3F)ccc21", "Mitogen-activated protein kinase 14 (Homo sapiens)", "log10 of IC50", 2.75],
  ["O=C1c2ccc(Nc3ccc(F)cc3F)cc2OCc2c(OC[C@@H](O)CO)cccc21", "Mitogen-activated protein kinase 14 (Homo sapiens)", "log10 of IC50", 1.40]
]}
